# ASSAY_INFO: method code SF-AS, from PMID: 6637502
# ASSAY_SETUP: pH 5.0
QUANTITY_NAME: logD

>>> test_result("Cc1cnc2n(c1=O)C(C)CCC2 (stereo not given)")
0.82
>>> test_result("Cc1cccn2c(=O)ccnc12")
0.79

[1] O=c1c2c(nc3n1CCCCC3)CCCCC2
[2] Cc1ccc2nccc(=O)n2c1
Kindly compare 1 with 2 and tell me which has the lower logD figure. Your choice should be expressed through its label.
2

----------
# ASSAY_INFO: method code SF-AS, from PMID: 6637502
# ASSAY_SETUP: pH 5.0
QUANTITY_NAME: logD

// solved cases for logD follow
>>> test_result("O=c1c2c(nc3n1CCCCC3)CCC2")
1.25
>>> test_result("CC1CCc2nc3c(c(=O)n2C1)CCCC3 (configuration not stated)")
1.7
>>> test_result("Cc1ccc2nc3c(c(=O)n2c1)CCC3")
1.61
>>> test_result("Cc1cccc2nc3c(c(=O)n12)CCC3")
1.77
>>> test_result("Cc1cnc2n(c1=O)CCCC2")
0.4

[a] Cc1ccc2nc3c(c(=O)n2c1)CCCC3
[b] O=c1c2c(nc3n1CCC3)CCC2
Select the item with the higher value of logD from the options a and b listed. Your choice should be expressed through its label.
a

----------
# ASSAY_INFO: method code SF-AS, from PMID: 6637502
# ASSAY_SETUP: pH 5.0
QUANTITY_NAME: logD

>>> test_result("CC1CCCn2c1nc1c(c2=O)CCCC1 (stereo unspecified)")
1.76
>>> test_result("CC1CCCc2nc3c(c(=O)n21)CCCC3 (stereo unspecified)")
1.67

[A] Cc1ccn2c(=O)c3c(nc2c1)CCC3
[B] Cc1cccn2c(=O)c3c(nc12)CCCC3
Select the item with the higher value of logD from the options A and B listed. Your choice should be expressed through its label.
B
(B: 2.44, A: 1.65)

[I] Cc1cccc2nc3c(c(=O)n12)CCCC3
[II] Cc1nc2n(c(=O)c1C)CCCC2
Select the item with the higher value of logD from the options I and II listed. Your choice should be expressed through its label.
I

[a] Cc1ccn2c(=O)ccnc2c1
[b] O=c1c2ccccc2nc2n1CCCCC2
Kindly compare a with b and tell me which has the lower logD figure. Your choice should be expressed through its label.
a
(a: 0.56, b: 1.98)

----------
# ASSAY_INFO: method code SF-AS, from PMID: 6637502
# ASSAY_SETUP: pH 5.0
QUANTITY_NAME: logD

>>> test_result("O=c1c2c(nc3ccccn13)CCCC2")
1.63
>>> test_result("CC1CCn2c(nc3c(c2=O)CCCC3)C1 (stereo not drawn)")
1.67
>>> test_result("Cc1ccn2c(=O)c3c(nc2c1)CCCC3")
1.86
